- EXPERIMENT: total protein half-life in vivo (active degradation + dilution); higher = more stable protein
- ASSAY CONTEXT: E. coli NCM3722 delta-clpP delta-lon delta-hslV; growth: N-lim chemostat; doubling time 6 h
Each entry below lists one item and its recorded total protein half-life in vivo value.
MEASUREMENT LABEL: total protein half-life in vivo (h)

- RESIDUE CODES: "MIIIRYLVRETLKSQLAILFILLLIFFCQKLVRILGAAVDGDIPANLVLSLLGLGVPEMAQLILPLSLFLGLLMTLGKLYTESEITVMHACGLSKAVLVKAAMILAVFTAIVAAVNVMWAGPWSSRHQDEVLAEAKANPGMAALAQGQFQQATNGSSVLFIESVDGSDFKDVFLAQIRPKGNARPSVVVADSGHLTQLRDGSQVVTLNQGTRFEGTALLRDFRITDFQDYQAIIGHQAVALDPNDTDQMDMRTLWNTDTDRARAELNWRITLVFTVFMMALMVVPLSVVNPRQGRVLSMLPAMLLYLLFFLIQTSLKSNGGKGKLDPTLWMWTVNLIYLALAIVLNLWDTVPVRRLRASFSRKGAV [P0AF98]"
  ASSAY VALUE: 6.78
- RESIDUE CODES: "MQDSILTTVVKDIDGEVTTLEKFAGNVLLIVNVASKCGLTPQYEQLENIQKAWVDRGFMVLGFPCNQFLEQEPGSDEEIKTYCTTTWGVTFPMFSKIEVNGEGRHPLYQKLIAAAPTAVAPEESGFYARMVSKGRAPLYPDDILWNFEKFLVGRDGKVIQRFSPDMTPEDPIVMESIKLALAK"
  ASSAY VALUE: 5.18
- RESIDUE CODES: "MKTIFTVGAVVLATCLLSGCVNEQKVNQLASNVQTLNAKIARLEQDMKALRPQIYAAKSEANRANTRLDAQDYFDCLRCLRMYAE"
  ASSAY VALUE: 7.01
- RESIDUE CODES: "MIEIESRELADIPVLHAYPVGQKDTPLPCVIFYHGFTSSSLVYSYFAVALAQAGLRVIMPDAPDHGSRFSGDAARRLNQFWQILLQSMQEFTTLRAAIAEENWLLDDRLAVGGASMGAMTALGITARHPTVRCTASMMGSGYFTSLARSLFPPLIPETAAQQNEFNNIVAPLAEWEATNHLEQLSDRPLLLWHGLDDDVVPADESLRLQQALSETGRDKLLTCSWQPGVRHRITPEALDAAVTFFRQHL"
  ASSAY VALUE: 4.25
